measurement target: T1, Soluble IGF-1R (R&D Systems, Cat. # 391-GR/CF); recombinant human IGF-1R (human, UniProt P08069 31-935)
T1 construct: extracellular domain; Eu3+-labelled in the TR-FRET assays; also called sIGF-1R; rhIGF-1R
test method notes: phage ELISA vs milk
measure: Ratio over Background

Take a look at these entries with their results.
{"binder": "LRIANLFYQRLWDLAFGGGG [20E22-3-E8-IGFR]", "observed measurement": "16.7 fold"}
{"binder": "SRVAATKEKRPSDDPFYHKLSELLQGS [B6Hα-3-F7-IR]", "observed measurement": "3.1 fold"}
{"binder": "GFREGSFYDWFQAQVT [E4Dα-2-D11-IR]", "observed measurement": "11.1 fold"}
{"binder": "ASSASGFYELLQRLAGLGLEV [20E2B-3-C4-1GFR]", "observed measurement": "20.4 fold"}
{"binder": "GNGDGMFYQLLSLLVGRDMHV [20E22-3-C2-IGFR]", "observed measurement": "8.9 fold"}
{"binder": "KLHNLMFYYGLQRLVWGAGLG [20E2B-4-H3-IGFR]", "observed measurement": "14.8 fold"}
{"binder": "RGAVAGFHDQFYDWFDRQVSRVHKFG [H2CA-4-E9-IGFR]", "observed measurement": "5.6 fold"}

Query: I am curious: what Ratio over Background value has been reported for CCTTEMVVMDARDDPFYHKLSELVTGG [B6Hα-1-B5-IR] ?
Response: 20.5 fold
